Could you please report measured TGI for the items listed next?
# Tested on: CAKI-1 renal
# method: NCI tumour cell line growth inhibition, 48 h

Form: compound = CCC(C)C(C(=O)N/N=C1/SCC(=O)N1C)C(=O)N/N=C1/SCC(=O)N1C (stereo not given) ; TGI = > 100 µM

Form: compound = Cc1cccc2[nH]c3cc(O)cc(O)c3c(=O)c12 ; TGI = > 10 µM

Form: compound = CC1C2=C(CC(C)(C)CC2=O)NC2=C1C(=O)CC(C)(C)C2 ; TGI = > 100 µM

Form: compound = COc1ccc(C(C#N)NC23CC4CC(CC(C4)C2)C3)cc1OC (stereo not given) ; TGI = > 100 µM

Form: compound = CSc1ccccc1P(c1ccccc1SC)c1ccccc1SC ; TGI = > 100 µM

###

# Test system: CCRF-CEM leukemia
# method: NCI tumour cell line growth inhibition, 48 h; in the data active = GI50 below about 0.43 µM; inactive = the rest
Pick one: active, inactive

*Q* Give the logged outcome of this assay for the following compound: O=C(Cn1c(=O)c(-c2ccccc2)nc2ccccc21)c1ccc(Cl)cc1
*A* inactive

*Q* Give the logged outcome of this assay for the following compound: COc1cc(/C=N/Nc2ncnc3c2cnn3C(C)C)ccc1O
*A* inactive

*Q* Give the logged outcome of this assay for the following compound: C=CCn1c(=O)c2cnc(Nc3ccc(N4CCN(C)CC4)cc3)nc2n1-c1ccc2c(n1)[C@@](O)(CC)CC2
*A* active

*Q* Give the logged outcome of this assay for the following compound: CC[C@@]1(OC(=O)CN)C(=O)OCc2c1cc1n(c2=O)Cc2cc3cc4c(cc3nc2-1)OCO4
*A* active

*Q* Give the logged outcome of this assay for the following compound: Cn1cc(C2=C(c3c4n(c5ccccc35)CCCC4)C(=O)NC2=O)c2ccccc21
*A* inactive

*Q* Give the logged outcome of this assay for the following compound: COc1ccc(-c2nn(-c3ccc(NC(=O)c4ccc(Cl)c(C(F)(F)F)c4)cc3)cc2-c2ccncc2)cc1Cl
*A* inactive

*Q* Give the logged outcome of this assay for the following compound: N#CC(C#N)=Cc1c(-c2ccccc2)[nH]c2ccccc12
*A* inactive

###

Could you please report measured TGI for the items listed next?
# System: MOLT-4 leukemia
# method: NCI tumour cell line growth inhibition, 48 h
Response body: numeric value in µM, unit text excluded.

Form: compound = CCC1=C(C)/C(=C/c2[nH]c(C(Br)Br)c(CC)c2C)N=C1C(Br)Br ; TGI = 27.4

Form: compound = COc1ccc(OC)c([N+](=O)[O-])c1-c1nc2sccn2c1/C=N/N=C(N)N ; TGI = 69.5

Form: compound = CC1=CC[C@@H]2C(C)(C)C(=O)CC[C@@]2(C)[C@@H]1COc1ccc2ccc(=O)oc2c1 ; TGI = 17.9

Form: compound = COc1cc(-c2n/c(=C\c3c(O)[nH]c4ccc(Cl)cc34)cc3c2=Nc2ccccc2-3)cc(OC)c1OC ; TGI = 3.64

Form: compound = CCN(CC)CCNc1ccc2ncn3c4c(OC)ccc(OC)c4c(=O)c1c23 ; TGI = 30.4

Form: compound = Cc1c(C)c2c(c(C)c1NC(=O)/C=C\C(=O)O)CCC(C)(CCCC(C)CCCC(C)CCCC(C)C)O2 (configuration not stated) ; TGI = 7.19

###

Could you please report measured TGI for the items listed next?
# Test system: SNB-19 CNS
# method: NCI tumour cell line growth inhibition, 48 h

Form: molecule = O=C1c2cccc3cc([N+](=O)[O-])cc(c23)C(=O)N1NC1=NCCN1 ; TGI = > 100 µM

Form: molecule = CCCN(CCCN)/[N+]([O-])=N\O ; TGI = > 100 µM

Form: molecule = C=C(C)[C@@H]1C[C@H]2O[C@](O)(C(=C)CC(=O)/C=C(/C)C[C@@H]3OC(=O)[C@]24O[C@@H]34)[C@H]1O ; TGI = > 100 µM

Form: molecule = C=C[C@@H](OCOCC[Si](C)(C)C)[C@@H](CC)OC(CCCOC(=O)C(C)(C)C)OC (stereo not given in full) ; TGI = 32.3 µM

Form: molecule = COC(=O)C1=C(OC(=O)/C(=C/c2ccc(Cl)cc2Cl)c2ccc(Cl)cc2Cl)C(C(=O)OC)[C@@]2(O)[C@@H](C(=O)OC)[C@H](C)C[C@@H]1[C@@H]2C(=O)OC (stereo not given in full) ; TGI = > 100 µM

###

# Test system: SNB-75 CNS
# method: NCI tumour cell line growth inhibition, 48 h
Could you please report measured TGI for the items listed next?

Sample Cc1cc(=O)oc2c(CN3CCCCC3)c(O)ccc12 , system: SNB-75 CNS. Its TGI is > 100 µM

Sample CO[C@H]1[C@@H](O)[C@@H](C)O[C@@H](O[C@H]2CC[C@@]3(C)[C@H](CC[C@@H]4[C@@H]3CC[C@]3(C)[C@@H](C5=CC(=O)OC5)CC[C@]43O)C2)[C@@H]1O , system: SNB-75 CNS. Its TGI is 0.0271 µM

Sample COc1ccc2c(c1)[C@]1(C[C@H]1c1ccc3c(/C=C/c4ccc(CN5C[C@@H](C)O[C@@H](C)C5)cc4)n[nH]c3c1)C(=O)N2 , system: SNB-75 CNS. Its TGI is 13.4 µM

Sample Cc1nc2ccccc2c(=O)n1/N=C(\N=Nc1cc(Cl)ccc1Cl)c1cccc(-c2ccco2)c1 , system: SNB-75 CNS. Its TGI is > 100 µM

Sample COc1cc2ccccc2c2cc([N+](=O)[O-])oc12 , system: SNB-75 CNS. Its TGI is 6.9 µM

Sample Nc1ccc2c(c1)C1=NNC(=O)CC1C2 (centres undefined) , system: SNB-75 CNS. Its TGI is > 100 µM

Sample N=C(N)C1CN(CCc2cnc[nH]2)C(=O)NC1=O (centres undefined) , system: SNB-75 CNS. Its TGI is > 100 µM

Sample O=C1c2ccccc2NC(c2cc(Cl)cc(Cl)c2O)N1CCc1ccccn1 (centres undefined) , system: SNB-75 CNS. Its TGI is > 100 µM

Sample COC(=O)CCC1(C)C2CCC1(C)/C(=N/O)C2 (centres undefined) , system: SNB-75 CNS. Its TGI is > 100 µM

###

Could you please report measured TGI for the items listed next?
# Tested on: A498 renal
# method: NCI tumour cell line growth inhibition, 48 h

Sample CCOC(=O)c1cc(/C=C/C(C)=C/C(=O)OC)oc1-c1ccccc1 , system: A498 renal. Its TGI is > 100 µM

Sample COc1ccc(OC)c([N+](=O)[O-])c1-c1nc2sccn2c1/C=N/N=C(N)N , system: A498 renal. Its TGI is > 100 µM

Sample C[C@]12CCC3c4ccc(O)cc4CC[C@H]3C1CC(=O)N(N)C2=O (stereo partly drawn) , system: A498 renal. Its TGI is > 100 µM

###

Could you please report measured TGI for the items listed next?
# System: M14 melanoma
# method: NCI tumour cell line growth inhibition, 48 h

Form: compound = COc1ccc(N(C)CN(C)c2nc(N(C)C)nc(N(C)C)n2)cc1 ; TGI = > 100 µM

Form: compound = O=C(Cc1nc2ccccc2c(=O)n1-c1c(Cl)cccc1Cl)c1ccncc1 ; TGI = > 100 µM

Form: compound = COc1ccc(C(C#N)NC23CC4CC(CC(C4)C2)C3)cc1OC (configuration not stated) ; TGI = > 100 µM

Form: compound = [N-]=[N+]=Nc1ccc(NCCCCCC(=O)ON2C(=O)CCC2=O)c([N+](=O)[O-])c1 ; TGI = > 100 µM

Form: compound = Cc1cc2cccnc2c2ncccc12 ; TGI = 5.32 µM

Form: compound = C[C@]12CCC3c4ccc(O)cc4CC[C@H]3C1CC(=O)N(N)C2=O (some centres not stated) ; TGI = > 100 µM

Form: compound = COc1ccc(-c2cc(-c3ccccc3)n(C3OCC(OC(C)=O)C(OC(C)=O)C3OC(C)=O)c(=S)c2C#N)cc1 (configuration not stated) ; TGI = > 100 µM

Form: compound = CNC(C)Cc1ccccc1O (configuration not stated) ; TGI = > 100 µM

Form: compound = COc1ccc(NS(=O)c2ccc(-c3ccccc3)cc2)cc1 (configuration not stated) ; TGI = > 100 µM

Form: compound = COC(=O)c1ccc(Oc2nc3ccccc3nc2-c2cccs2)cc1 ; TGI = > 100 µM

Form: compound = CCOC(=O)N1CCN(c2c(C)nc(C)[nH]c2=O)CC1 ; TGI = > 100 µM

Form: compound = CN1C(OCc2ccccc2)c2c(ccc3c2OCO3)C2C=Cc3cc4c(cc3C21)OCO4 (configuration not stated) ; TGI = 2.1 µM

###

# Test system: MCF7 breast
# method: NCI tumour cell line growth inhibition, 48 h
readout-label: TGI

Form: compound = CC(CN(C)C)C(=O)c1ccccc1C(=O)O (stereo not drawn) ; TGI = > 100 µM

Form: compound = CCCCC1Cc2ccccc2-c2n1c1ccccc1[n+]2C (stereo not drawn) ; TGI = > 100 µM

Form: compound = FC(F)(F)c1nc2ccc(SSc3ccc4nc(C(F)(F)F)[nH]c4c3)cc2[nH]1 ; TGI = > 100 µM

// data source = PubChem BioAssay (NCI)
